tested on: Staphylococcus aureus; experiment: Antibacterial activity against Staphylococcus aureus ATCC 29213 assessed as inhibition of bacterial growth incubated for 18 to 24 hrs by broth microdilution assay; type: functional; conditions: time 18-24 hrs
Reported MIC values follow for various compounds

Below, each entry is followed by its recorded MIC result.
Q. Could you share what MIC was measured for "COc1c(OCc2ccccc2)cc2oc3cc(OCc4ccccc4)c(CC=C(C)C)c(OCc4ccccc4)c3c(=O)c2c1CC=C(C)C" , tested on Staphylococcus aureus?
A. > 256 µg/mL

Q. Return MIC measured with Staphylococcus aureus given this compound: "COc1cc2oc3cc(OC)c(OC)c(CC=C(C)C)c3c(=O)c2c(OC)c1CC=C(C)C"
A. > 256 µg/mL

Q. Give recorded MIC with Staphylococcus aureus for the following compound: "COc1c(O)cc2oc3cc4c(c(O)c3c(=O)c2c1CC=C(C)C)CCC(C)(C)O4"
A. 64 µg/mL

Q. Request body: readout MIC, system Staphylococcus aureus, query "C=CCOc1cc2oc3cc(OCC=C)c(OC)c(CC=C(C)C)c3c(=O)c2c(OC(=O)C(C)C)c1CC=C(C)C" . Return the value.
A. > 256 µg/mL

Q. What is its MIC for Staphylococcus aureus? Entry: "COc1c(OCCCCCCO)cc2oc3cc(OCCCCCCO)c(CC=C(C)C)c(O)c3c(=O)c2c1CC=C(C)C"
A. > 256 µg/mL

Q. Write down the reported MIC of "C=CCOc1cc2oc3cc(O)c(CC=C(C)C)c(O)c3c(=O)c2c(CC=C(C)C)c1OC" , test system: Staphylococcus aureus.
A. > 256 µg/mL

Q. Look up MIC with Staphylococcus aureus for this compound: "COc1c(O)cc2oc3cc(O)c(CC=C(C)C)c(OC(=O)C(C)C)c3c(=O)c2c1CC=C(C)C"
A. 2 µg/mL

Q. Please state recorded MIC (tested on Staphylococcus aureus) of "CCN1CCN(c2cc3c(cc2F)c(=O)c(C(=O)O)cn3C2CC2)CC1"
A. 0.06 µg/mL

Note: attention shifts to another entry.
Q. Give Staphylococcus aureus MIC for "COc1c(O)cc2c(c1CC=C(C)C)Cc1c(cc(O)c(CC=C(C)C)c1O)O2"
A. 16 µg/mL

###

tested on: Staphylococcus aureus; assay: Antibacterial activity against methicillin-resistant Staphylococcus aureus 2 assessed as inhibition of bacterial growth incubated for 18 to 24 hrs by broth microdilution assay; type: functional; conditions: time 18-24 hrs
# reported MIC; entries follow

Q. MIC for "COc1c(OC(=O)C(C)C)cc2oc3cc(O)c(CC=C(C)C)c(O)c3c(=O)c2c1CC=C(C)C" ?
A. > 256 µg/mL

Q. Look at this compound and give its reported MIC. "C=CCOc1cc2oc3cc(O)c(CC=C(C)C)c(O)c3c(=O)c2c(CC=C(C)C)c1OC"
A. > 256 µg/mL

Continuing:
Q. Requested read-out: MIC. Entry: "COc1c(OC(=O)C(C)C)cc2oc3cc(OC(=O)C(C)C)c(CC=C(C)C)c(O)c3c(=O)c2c1CC=C(C)C"
A. > 256 µg/mL

Q. Query (compound): "COc1c(O)cc2c(c1CC=C(C)C)Cc1c(cc(O)c(CC=C(C)C)c1O)O2" ; field requested: MIC
A. 16 µg/mL

###

tested on: Staphylococcus aureus; assay: Antibacterial activity against Staphylococcus aureus ATCC 43300 assessed as inhibition of bacterial growth incubated for 18 to 24 hrs by broth microdilution assay; assay type: functional; settings: time 18-24 hrs
// values below are reported MIC

Q. For "COc1c(O)cc2oc3cc(OC(C)=O)c(CC=C(C)C)c(O)c3c(=O)c2c1CC=C(C)C" , what is its reported MIC?
A. > 256 µg/mL

New cases:
Q. Look up MIC: "COc1c(OC(=O)C(C)C)cc2oc3cc(O)c(CC=C(C)C)c(O)c3c(=O)c2c1CC=C(C)C"
A. > 256 µg/mL

Q. Any idea what its MIC is? The molecule is "COc1cc2oc3cc(OC)c(OC)c(CC=C(C)C)c3c(=O)c2c(OC)c1CC=C(C)C"
A. > 256 µg/mL

Q. May I ask what MIC has been recorded for "C=CCOc1cc2oc3cc(OCC=C)c(OC)c(CC=C(C)C)c3c(=O)c2c(OC(C)=O)c1CC=C(C)C" ?
A. > 256 µg/mL

Q. MIC lookup needed for "COc1c(OC(=O)C(C)C)cc2oc3cc(OC(=O)C(C)C)c(CC=C(C)C)c(O)c3c(=O)c2c1CC=C(C)C" , thanks.
A. > 256 µg/mL

Q. Give the measured MIC of "COc1c(OC(C)=O)cc2oc3cc(OC(C)=O)c(CC=C(C)C)c(O)c3c(=O)c2c1CC=C(C)C" .
A. > 256 µg/mL
